# DC50 values compiled below
- experimental-system: BTK (Homo sapiens)
- Construct: High control=Cell group with added DMSO and without compound, indicating microplate readings without BTK degradation; endogenous in cells; host or cells: TMD-8
- Sequence (Q06187 whole entry): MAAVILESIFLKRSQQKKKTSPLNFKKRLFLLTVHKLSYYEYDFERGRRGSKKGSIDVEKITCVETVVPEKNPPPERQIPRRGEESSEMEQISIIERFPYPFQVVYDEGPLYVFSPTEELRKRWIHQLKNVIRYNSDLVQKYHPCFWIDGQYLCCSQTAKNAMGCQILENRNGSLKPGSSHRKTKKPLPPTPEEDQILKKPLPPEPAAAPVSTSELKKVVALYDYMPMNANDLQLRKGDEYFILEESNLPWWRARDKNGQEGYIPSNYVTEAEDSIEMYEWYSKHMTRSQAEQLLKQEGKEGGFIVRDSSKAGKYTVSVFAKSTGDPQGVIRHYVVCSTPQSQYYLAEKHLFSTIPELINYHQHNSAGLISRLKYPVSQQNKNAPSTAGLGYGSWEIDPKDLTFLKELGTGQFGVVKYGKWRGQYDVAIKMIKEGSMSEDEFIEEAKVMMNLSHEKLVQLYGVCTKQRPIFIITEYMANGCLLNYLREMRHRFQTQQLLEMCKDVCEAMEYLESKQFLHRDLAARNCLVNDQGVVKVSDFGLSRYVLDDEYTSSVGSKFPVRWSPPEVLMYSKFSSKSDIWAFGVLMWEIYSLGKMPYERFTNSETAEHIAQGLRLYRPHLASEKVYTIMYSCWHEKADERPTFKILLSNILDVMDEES
- method-summary: BTK degradation in TMD-8 cells (HTRF assay)
- Format: cell-based
- condition-summary: 6 h treatment, IC50 (DC50) of BTK degradation
property: DC50

# compound, experimental-system, property, observed-result
measured = [
    ("Cc1c([C@@H](C)NC(=O)c2noc(C(C)(C)C)n2)ccc(-c2ncnc3[nH]c4cc(N5CCN(Cc6ccc(SC7CCC(=O)NC7=O)cc6)CC5)ccc4c23)c1F (stereo partly drawn) [Example 88]", "BTK (Homo sapiens)", "DC50", "> 2 µM"),
    ("Cc1c([C@@H](C)NC(=O)c2noc(C(C)(C)C)n2)ccc(-c2ncnc3[nH]c4cc(N5CCN(Cc6ccc7c(c6)n(C6CCC(=O)NC6=O)c(=O)n7C)CC5)ccc4c23)c1F (stereo partly drawn) [Example 78]", "BTK (Homo sapiens)", "DC50", "> 2 µM"),
    ("COc1cc2c(cc1N1CCN(Cc3ccc4c(c3)n(C)c(=O)n4C3CCC(=O)NC3=O)CC1)[nH]c1ncnc(-c3ccc([C@@H](C)NC(=O)c4nc(C(C)(C)C)no4)c(C)c3)c12 (stereo partly drawn) [Example 69]", "BTK (Homo sapiens)", "DC50", "0.000266 µM"),
]
